Test: small-molecule binders of probe aInhba, primary screen, biochemical, small-molecule microarray, 635/667 nm fluorescence (AID 1148);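 also: score merges 667nm spot fluorescence with signal-to-noise for antibody binding to printed compounds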
Conditions: higher = more signal
Mark 1 for reported composite z-score of -0.05 or greater; mark 0 for anything smaller.

In: Does the reported composite z-score for CCc1cc2c(nc1CC)CCN(CCC(C)=NO[C@@H](C)c1cn([C@H](CO)Cc3ccccc3)nn1)C2 fall at or above the -0.05 mark?
Out: 1

In: Does the reported composite z-score for O=C1CCCC=C1C(O)CCCCBr (configuration not stated) fall at or above the -0.05 mark?
Out: 0

In: Does the reported composite z-score for COC(=O)CC=C[C@@H](C)[C@@H](C=NO[C@H](C)c1cn([C@H](CO)Cc2ccccc2)nn1)NS(=O)(=O)c1ccc(C)cc1 fall at or above the -0.05 mark?
Out: 0

In: Does the reported composite z-score for CC(CCN1CCc2nc(-c3ccccc3)c(-c3ccccc3)cc2C1)=NOC[C@@H](O)[C@H]1O[C@@H]2OC(C)(C)O[C@@H]2[C@H]1O fall at or above the -0.05 mark?
Out: 0

In: Does the reported composite z-score for O=c1n(Cc2cc3c(cc2Cl)OCO3)c(=O)n2n1CC[C@@H]1C(=NOC[C@@H](O)COCc3ccco3)[C@H]3O[C@H]3[C@@H](O)[C@@H]12 fall at or above the -0.05 mark?
Out: 1

In: Does the reported composite z-score for C[C@@H](c1ccccc1)N1C(=O)[C@H]2[C@H]3[C@H](O)[C@H](O)CC(=NO[C@@H]4O[C@H](CO)[C@@H](O)[C@H](O)[C@H]4O)[C@H]3CC[C@H]2C1=O fall at or above the -0.05 mark?
Out: 0

In: Does the reported composite z-score for CC(=O)O[C@H]1C2=CO[C@H](C)[C@H]3[C@H]4C5=C([C@H](O)[C@H]6O[C@H]6C5=O)[C@H](OC4C)[C@@]23C(=O)[C@@H]2O[C@@H]21 (some centres not stated) fall at or above the -0.05 mark?
Out: 0

====

Assay: basal S. cerevisiae growth modulation, no modifier, primary screen, OD600, strain BY4716, 24 h, basal condition (AID 1173)
Details: OD600, 24 h, higher = more signal, called active from +8 up or from −8 down
Give measured z-score for each item. Keep answers brief.
A bare number is all that is needed in reply.

In: Identify measured z-score corresponding to COc1ccc(COC(=O)NN=C2C[C@@H](O)[C@@H](O)[C@@H]3[C@@H]4C(=O)N(Cc5ccccc5)C(=O)[C@@H]4CC[C@H]23)cc1
Out: 0.3

In: Identify measured z-score corresponding to CC(C)CON=C1C[C@@H](O)[C@@H](O)[C@@H]2[C@@H]3C(=O)N(C[C@@H]4CCCO4)C(=O)[C@@H]3CC[C@@H]12
Out: 0.526

In: Identify measured z-score corresponding to C#CCCCON=C1C[C@@H](O)[C@@H](O)[C@@H]2[C@@H]3C(=O)N(c4ccc(F)cc4F)C(=O)[C@@H]3CC[C@@H]12
Out: -0.652

In: Identify measured z-score corresponding to COC(=O)[C@H](C)NC(=O)CCC1CC(OC(=O)NCc2cccc3ccccc23)CC2(CCCC(COC(=O)NCC(c3ccccc3)c3ccccc3)O2)O1 (stereo not given in full)
Out: -0.425

In: Identify measured z-score corresponding to C[C@@H](c1ccccc1)N1C(=O)[C@H]2[C@H]3[C@H](O)[C@H](O)CC(=O)[C@H]3CC[C@H]2C1=O
Out: -0.491

In: Identify measured z-score corresponding to CCc1cc2c(nc1CC)CCN(CCC(C)=NO[C@H](C)c1cn([C@H](CO)Cc3ccccc3)nn1)C2
Out: -0.0397

In: Identify measured z-score corresponding to CO[C@H]1COC(=O)CCC[C@@H](C)[C@H](OC)COC(=O)[C@@H](C)NC(=O)CC=C[C@@H]1C
Out: 0.315

In: Identify measured z-score corresponding to CO[C@@H]1COC(=O)[C@@H](C)COC(=O)[C@@H](C)NC(=O)CC=C[C@@H]1C
Out: -0.792

In: Identify measured z-score corresponding to CON=CC[C@@H]1C=C[C@H](OC(C)=O)[C@@H](COC(C)=O)O1
Out: -0.0768

In: Identify measured z-score corresponding to CC(C)=CCCC(C)=CCON=C1C[C@@H](O)[C@@H](O)[C@@H]2[C@@H]3C(=O)N(Cc4ccccc4)C(=O)[C@@H]3CC[C@H]12
Out: -2.99

In: Identify measured z-score corresponding to O=C(NN=C1C[C@@H](O)[C@@H](O)[C@@H]2[C@@H]3C(=O)N(Cc4ccccc4)C(=O)[C@@H]3CC[C@@H]12)OCc1ccccc1
Out: -1.17

In: Identify measured z-score corresponding to CCOC(=O)CCN1C(=O)[C@H]2[C@H]3[C@H](O)[C@H](O)CC(=NOCC(C)C)[C@H]3CC[C@H]2C1=O
Out: 0.265

In: Identify measured z-score corresponding to CC(C)CON=C1C[C@@H](O)[C@@H](O)[C@@H]2[C@@H]3C(=O)N(C4CCCCC4)C(=O)[C@@H]3CC[C@H]12
Out: -0.197

In: Identify measured z-score corresponding to CC(CCN1CCCCc2nc(C)c(C)cc21)=NOC[C@@H](O)COCc1ccco1
Out: -0.0954

In: Identify measured z-score corresponding to COC(=O)CC=C[C@@H](C)[C@@H](C=NOC[C@H]1O[C@H](c2ccccc2)C=C[C@@H]1Oc1ccc(OC)cc1)NS(=O)(=O)c1ccc(C)cc1
Out: 0.642
